experiment: BTK FAC plasma stability assay, PBS buffer arm
Type: physicochemical
test_context: 24 h
Catalogue of % Release of degrader after 24 h PBS values
Please give a number only; it is taken to be in %.

Record excerpt, results attached:
{"columns": ["molecule", "measurement_units", "observed_measurement"],
 "data": [
  ["CCCCCCCCCCCN(C(=O)CCCCCCCCCC(=O)O)C(CCC(=O)NCCOCCOCCOCCOCCOCCOCCOCCOCCOCCOCCOCCOCCC(=O)NCCC(=O)OC(C)(C)c1ccc(C(=O)Nc2cc(F)cc(-c3ncnc4[nH]c(-c5ccc(CCN6CCC7(CC6)CCN(C(=O)c6ccc(OC)c(N8CCC(=O)NC8=O)c6)CC7)cc5)cc34)c2C)c(F)c1)C(=O)O (stereo not drawn) [Example A12]", "%", 0.3],
  ["CCCCCCCCCCCN(C(=O)CCCCCCCCCC(=O)O)C(CCC(=O)NCCOCCOCCOCCOCCC(=O)NCC(=O)OC(C)(C)c1ccc(C(=O)Nc2cc(F)cc(-c3ncnc4[nH]c(-c5ccc(CCN6CCC7(CC6)CCN(C(=O)c6ccc(OC)c(N8CCC(=O)NC8=O)c6)CC7)cc5)cc34)c2C)c(F)c1)C(=O)O (stereo not drawn) [Example A7]", "%", 1.5],
  ["CCCCCCCCCCCN(C(=O)CCCCCCCCCC(=O)O)C(CCC(=O)NCCOCCOCCOCCOCCOCCOCCOCCOCCOCCOCCOCCOCCC(=O)NCc1ccc(CC(=O)OC(C)(C)c2ccc(C(=O)Nc3cc(F)cc(-c4ncnc5[nH]c(-c6ccc(CCN7CCC8(CC7)CCN(C(=O)c7ccc(OC)c(N9CCC(=O)NC9=O)c7)CC8)cc6)cc45)c3C)c(F)c2)cc1)C(=O)O (stereo not drawn) [Example A23]", "%", 0.2],
  ["CCCCCCCCCCCN(C(=O)CCCCCCCCCC(=O)O)C(CCC(=O)NCCOCCOCCOCCOCCOCCOCCOCCOCCOCCOCCOCCOCCC(=O)NCC(=O)NCN(C(=O)c1ccc(C(C)(C)O)cc1F)c1cc(F)cc(-c2ncnc3[nH]c(-c4ccc(CCN5CCC6(CC5)CCN(C(=O)c5ccc(OC)c(N7CCC(=O)NC7=O)c5)CC6)cc4)cc23)c1C)C(=O)O (stereo not drawn) [Example A36]", "%", 0],
  ["CCCCCCCCCCCN(C(=O)CCCCCCCCCC(=O)O)C(CCC(=O)NCCOCCOCCOCCOCCOCCOCCOCCOCCOCCOCCOCCOCCC(=O)N1CCC[C@H]1CC(=O)OC(C)(C)c1ccc(C(=O)Nc2cc(F)cc(-c3ncnc4[nH]c(-c5ccc(CCN6CCC7(CC6)CCN(C(=O)c6ccc(OC)c(N8CCC(=O)NC8=O)c6)CC7)cc5)cc34)c2C)c(F)c1)C(=O)O (stereo partly drawn) [Example A19]", "%", 0.3],
  ["CCCCCCCCCCCN(C(=O)CCCCCCCCCC(=O)O)[C@@H](CCC(=O)N(CCNC(=O)CCOCCOCCOCCOCCOCCOCCOCCOCCOCCOCCOCCOC)CC(=O)OC(C)(C)c1ccc(C(=O)Nc2cc(F)cc(-c3ncnc4[nH]c(-c5ccc(CCN6CCC7(CC6)CCN(C(=O)c6ccc(OC)c(N8CCC(=O)NC8=O)c6)CC7)cc5)cc34)c2C)c(F)c1)C(=O)O [Example A37]", "%", 1.7],
  ["CCCCCCCCCCCN(C(=O)CCCCCCCCCC(=O)O)C(CCC(=O)NCCOCCOCCOCCOCCOCCOCCOCCOCCOCCOCCOCCOCCC(=O)N1CCC(F)(C(=O)OC(C)(C)c2ccc(C(=O)Nc3cc(F)cc(-c4ncnc5[nH]c(-c6ccc(CCN7CCC8(CC7)CCN(C(=O)c7ccc(OC)c(N9CCC(=O)NC9=O)c7)CC8)cc6)cc45)c3C)c(F)c2)CC1)C(=O)O (stereo not drawn) [Example A15]", "%", 0],
  ["CCCCCCCCCCCN(C(=O)CCCCCCCCCC(=O)O)C(CCC(=O)NCCOCCOCCOCCOCCOCCOCCOCCOCCOCCOCCOCCOCCC(=O)NC(C)(C)CC(=O)OC(C)(C)c1ccc(C(=O)Nc2cc(F)cc(-c3ncnc4[nH]c(-c5ccc(CCN6CCC7(CC6)CCN(C(=O)c6ccc(OC)c(N8CCC(=O)NC8=O)c6)CC7)cc5)cc34)c2C)c(F)c1)C(=O)O (stereo not drawn) [Example A18]", "%", 0.6]
]}

Given the entry CCCCCCCCCCCN(C(=O)CCCCCCCCCC(=O)O)C(CCC(=O)NCCOCCOCCOCCOCCOCCOCCOCCOCCOCCOCCOCCOCCC(=O)NCCOP(=O)(O)OC(C)(C)c1ccc(C(=O)Nc2cc(F)cc(-c3ncnc4[nH]c(-c5ccc(CCN6CCC7(CC6)CCN(C(=O)c6ccc(OC)c(N8CCC(=O)NC8=O)c6)CC7)cc5)cc34)c2C)c(F)c1)C(=O)O (stereo not drawn) [Example A39] , report its measured % Release of degrader after 24 h PBS. 0

# get_value(readout='% Release of degrader after 24 h PBS', item= CCCCCCCCCCCN(C(=O)CCCCCCCCCC(=O)O)C(CCC(=O)NCCOCCOCCOCCOCCOCCOCCOCCOCCOCCOCCOCCOCCC(=O)NCc1ccc(C(=O)OC(C)(C)c2ccc(C(=O)Nc3cc(F)cc(-c4ncnc5[nH]c(-c6ccc(CCN7CCC8(CC7)CCN(C(=O)c7ccc(OC)c(N9CCC(=O)NC9=O)c7)CC8)cc6)cc45)c3C)c(F)c2)cn1)C(=O)O (stereo not drawn) [Example A25] ) 2.2

Look up % Release of degrader after 24 h PBS for this molecule: CCCCCCCCCCCN(C(=O)CCCCCCCCCC(=O)O)C(CCC(=O)NCCOCCOCCOCCOCCOCCOCCOCCOCCOCCOCCOCCOCCC(=O)NCc1cc(C(=O)OC(C)(C)c2ccc(C(=O)Nc3cc(F)cc(-c4ncnc5[nH]c(-c6ccc(CCN7CCC8(CC7)CCN(C(=O)c7ccc(OC)c(N9CCC(=O)NC9=O)c7)CC8)cc6)cc45)c3C)c(F)c2)ccn1)C(=O)O (stereo not drawn) [Example A26] 7

# lookup: % Release of degrader after 24 h PBS of CCCCCCCCCCCN(C(=O)CCCCCCCCCC(=O)O)C(CCC(=O)NCCOCCOCCOCCOCCOCCOCCOCCOCCOCCOCCOCCOCCC(=O)NCc1ccc(C(=O)OC(C)(C)c2ccc(C(=O)Nc3cc(F)cc(-c4ncnc5[nH]c(-c6ccc(CCN7CCC8(CC7)CCN(C(=O)c7ccc(OC)c(N9CCC(=O)NC9=O)c7)CC8)cc6)cc45)c3C)c(F)c2)cc1)C(=O)O (stereo not drawn) [Example A14] 0.2

----------
experiment: In vivo pharmacokinetic study in mice (i.v. or s.c.), FAC and payload in blood
Set-up: species or system mouse
test_context: male, C57/B16, whole blood, sc; mouse; subcutaneous dosing; unconjugated Compound V at 1 umol/kg; read-out: Payload AUC
measured_parameter: AUC (µM·h)
Report the value in µM·h with no unit label.

# lookup: AUC of COc1ccc(C(=O)N2CCC3(CCN(CCc4ccc(-c5cc6c(-c7cc(F)cc(NC(=O)c8ccc(C(C)(C)O)cc8F)c7C)ncnc6[nH]5)cc4)CC3)CC2)cc1N1CCC(=O)NC1=O 8.2

----------
Listed molecules paired with reported Plasma stability (h) PBS
experiment: BTK FAC plasma stability assay, PBS buffer arm
Assay type: physicochemical
test_context: incubation to 24 h

Known results for molecules:
{"columns": ["molecule", "Plasma stability (h) PBS"],
 "data": [
  ["CCCCCCCCCCCN(C(=O)CCCCCCCCCC(=O)O)[C@H](CCC(=O)NCCOCCOCCOCCOCCOCCOCCOCCOCCOCCOCCOCCOCCC(=O)NCC(=O)OC(C)(C)c1ccc(C(=O)Nc2cc(F)cc(-c3ncnc4[nH]c(-c5ccc(CCN6CCC7(CC6)CCN(C(=O)c6ccc(OC)c(N8CCC(=O)NC8=O)c6)CC7)cc5)cc34)c2C)c(F)c1)C(=O)O", ">48 h"],
  ["CCCCCCCCCCCN(C(=O)CCCCCCCCCC(=O)O)C(CCC(=O)NCCOCCOCCOCCOCCOCCOCCOCCOCCOCCOCCOCCOCCC(=O)N[C@@H](C)CC(=O)OC(C)(C)c1ccc(C(=O)Nc2cc(F)cc(-c3ncnc4[nH]c(-c5ccc(CCN6CCC7(CC6)CCN(C(=O)c6ccc(OC)c(N8CCC(=O)NC8=O)c6)CC7)cc5)cc34)c2C)c(F)c1)C(=O)O (stereo partly drawn)", ">48 h"],
  ["CCCCCCCCCCCN(C(=O)CCCCCCCCCC(=O)O)[C@@H](CCC(=O)N(CCNC(=O)CCOCCOCCOCCOCCOCCOCCOCCOCCOCCOCCOCCOC)CC(=O)OC(C)(C)c1ccc(C(=O)Nc2cc(F)cc(-c3ncnc4[nH]c(-c5ccc(CCN6CCC7(CC6)CCN(C(=O)c6ccc(OC)c(N8CCC(=O)NC8=O)c6)CC7)cc5)cc34)c2C)c(F)c1)C(=O)O", ">48 h"]
]}

// lookup Plasma stability (h) PBS for CCCCCCCCCCCN(C(=O)CCCCCCCCCC(=O)O)[C@@H](CCC(=O)NCCOCCOCCOCCOCCOCCOCCOCCOCCOCCOCCOCCOCCC(=O)N(CCC(=O)OC(C)(C)c1ccc(C(=O)Nc2cc(F)cc(-c3ncnc4[nH]c(-c5ccc(CCN6CCC7(CC6)CCN(C(=O)c6ccc(OC)c(N8CCC(=O)NC8=O)c6)CC7)cc5)cc34)c2C)c(F)c1)CC(=O)O)C(=O)O >48 h

Find the recorded Plasma stability (h) PBS belonging to CCCCCCCCCCCN(C(=O)CCCCCCCCCC(=O)O)C(CCC(=O)NCCOCCOCCOCCOCCC(=O)NCC(=O)O[C@H]1CN(C(=O)Nc2cc(F)cc(-c3ncnc4[nH]c(-c5ccc(CCN6CCC7(CC6)CCN(C(=O)c6ccc(OC)c(N8CCC(=O)NC8=O)c6)CC7)cc5)cc34)c2C)C[C@@H]1CC(C)C)C(=O)O (stereo partly drawn) and report it. >72 h
